Assay: Primary qHTS for inhibitors of nuclear receptor binding SET domain protein 2 (NSD2) in an RCH-ACV wild type WT cells (2C) (AID 1645877); further: nearly all actives have a fitted effect of over 70% in size
Conditions: RCH-ACV (leukaemia line) NSD2 WT (2C) viability, CellTiter-Glo, 72 h; series mostly up to 44.9 µM
Records with an inconclusive call do not appear. Calls of active or inactive are those of the source. The call rests on the fitted dose curve; in most records, active means well fitted inhibition curve with a large enough effect; inconclusive means small, poorly fitted or top-dose-only effect; inactive means no such curve, though single readings can be large or run the other way.
Permitted responses: active, inactive

Task: Recorded test call requested for CCNC(=O)c1noc(-c2cc(Cl)c(O)cc2O)c1-c1ccc(OC)cc1
Result: active

Task: # outcome recorded in this test, key = COC1CC(O[C@H]2CC[C@]3(C)C4CC[C@]5(C)C(C6=CC(=O)OC6)=CCC56OC46CC[C@@H]3C2)OC(C)C1O[C@@H]1O[C@H](CO[C@@H]2O[C@H](CO)[C@@H](O)[C@H](O)[C@H]2O)[C@@H](O)[C@H](O)[C@H]1O (stereo partly drawn)
Result: active

Task: What did this assay record as the result for CN(C)CC#CCCC(=O)C(O)(c1ccccc1)C1CCC1 (stereo not drawn) ?
Result: inactive

Task: Would you mind telling me which call this test gave O=C(c1ccccc1)c1c(O)cc(O)cc1O[C@@H]1O[C@H](CO)[C@@H](O)[C@H](O)[C@H]1O ?
Result: inactive

Task: Per the assay record, what outcome was assigned to C=C1C(=O)O[C@H]2C3=C(C)CCC[C@]3(C)C(=O)C[C@@H]12 ?
Result: active

Task: For C=C1CC2OC(=O)C(=C)C2C(O)/C=C(\C)CCC1O (stereo not drawn) , what call appears in the results of this test?
Result: active

Task: Assay outcome for C/C=C(\C)C(=O)OC1C[C@@]2(COC(C)=O)O[C@H]2/C=C\[C@@]2(C)O[C@@H]2[C@H]2OC(=O)C(COC(C)=O)=C12 (stereo partly drawn) : what was it?
Result: active

Task: Hi, sorry to bother you, what did the test record for CC(C)(C[C@@](O)(Cc1cc2ccncc2[nH]1)C(F)(F)F)c1cc(F)ccc1O ?
Result: active

###

Test system: CRL-7250
Test: Cytotoxic Profiling of Annotated Libraries Using Quantitative High-Throughput Screening (AID 1296008); further: on the % scale 0 is the no-effect control and ±100 the full control effect; nearly all actives have a fitted effect of over 60% in size
Details: Five cell lines viability, CellTiter-Glo ATP luminescence, 48-72 h; stronger effect = lower value
Inconclusive results are not listed.
readout: max response (%)
State the answer as a number, implicitly in %.

Task: Entry CC(=O)OC1C(OC(=O)c2ccccc2)C2C(=C(C)CCC2(C)C)C23CCC(C)(C2)C(=O)CC13 (centres undefined) : reported max response = ?
Result: -34.2

Task: Would you kindly share the measured max response for Nc1nc2c(nc(Br)n2[C@@H]2O[C@@H]3COP(=O)(O)O[C@H]3[C@H]2O)c(=O)[nH]1 ?
Result: -4.64

Task: Recorded max response of Cc1ccc(NC(=O)c2ccc(CN3CCNCC3)cc2)cc1Nc1nccc(-c2cccnc2)n1 , please.
Result: -21.4

Task: Would you kindly share the measured max response for Fc1ccc(N2CCCCC2)c(NC(=S)c2ccncc2)c1 ?
Result: 3.95

Task: # query: max response of entry Nc1c(S(=O)(=O)c2ccccc2)c2nc3ccccc3nc2n1-c1ccc(F)cc1
Result: 2.31

Task: What measured max response goes with O=C(c1ccc(Cl)cc1)N1CCN(c2ccnc3cc(Cl)ccc23)CC1 ?
Result: 3.03

Task: Look up max response: CC1(C)CCCC2(C)C1C(OC(=O)/C=C/C=C/C=O)C=C1COC(=O)C12O (centres undefined)
Result: -21.2

Task: Reported max response, molecule Fc1ccc(N2CCN(CCC3OCCc4ccccc43)CC2)cc1 (centres undefined) : ____
Result: -11.3

Task: For the molecule shown here, CC(=O)N[C@H]1[C@H](O[C@H]2CC[C@@]3(C)C(CC[C@]4(C)C3CC=C3C5CC(C)(C)CC[C@]5(C(=O)O)C(O)C[C@]34C)C2(C)C)O[C@H](CO[C@@H]2O[C@H](C)[C@H](O)[C@H](O)[C@H]2O[C@@H]2OC[C@@H](O)[C@H](O)[C@H]2O)[C@@H](O)[C@@H]1O (some centres undefined) , give the reported max response.
Result: -3.47

Task: Recorded max response of CC[C@@H]1C[C@]1(NC(=O)[C@@H]1C[C@@H]2CN1C(=O)[C@H](C(C)(C)C)NC(=O)OCC(C)(C)CCCCc1cccc3c1CN(C3)C(=O)O2)C(=O)NS(=O)(=O)C1CC1 , please.
Result: -9.24

Task: Returns the measured max response for the input molecule. Input: COc1ccnc(CS(=O)c2nc3cc(OC(F)F)ccc3[nH]2)c1OC (centres undefined)
Result: -13.2

Task: Which max response value belongs to Cc1ccc(C2(C(=O)N3CCC(n4nc(-c5ccccc5)oc4=O)CC3)CC2)cc1 ?
Result: -18.3

Task: May I ask what max response has been recorded for COc1ccc2cc3c(NC(=O)c4ccco4)nn(C)c3nc2c1 ?
Result: -20.9

Task: Give the measured max response of C[C@@H]1C[C@H]2O[C@@]3(O[C@@H]2C(C)(C)O)C(O)[C@@]2(C)C4CCC5C(C)(C)[C@@H](O[C@H]6OC[C@H](O)[C@@H](O)[C@@H]6O)CC[C@@]56C[C@@]46CC[C@]2(C)C13 (some centres undefined) .
Result: 1.57

Task: # get_value(readout='max response', item= O=C(CNC(=O)c1cccc(C(F)(F)F)c1)N[C@@H]1CCN(Cc2ccc(Cl)cc2)C1 )
Result: -11.8

Task: Need max response, item COc1ccc(CCCN2CCC(COC(c3ccccc3)c3ccccc3)CC2)cc1
Result: -2.98

Task: Sample Cc1ccc(S(=O)(=O)NCc2ccc(C(=O)NCCN(Cc3ccccc3)C(C)C)cc2)cc1 — what was its max response?
Result: -10.1

Task: Returns the measured max response for the input molecule. Input: CC(C)(CNC(=O)c1cccc(-c2noc(C(F)(F)F)n2)c1)c1coc(-c2ccccc2)n1
Result: 1.16

Task: max response for CCc1ccc(-c2nc(CSCC(=O)NCCc3ccccc3)c(C)o2)cc1 ?
Result: 2.64

Task: Fill in the blank: the reported max response of COc1c2c(c(C)c3c1C(=O)OC3)O[C@@]1(C)C[C@@H](OC(C)=O)[C@]34O[C@](OC)(CC[C@]3(C)[C@H]1C2)OC4(C)C is ____.
Result: -3.21

Task: Can you look up the measured max response of C/C(=C/C=C\C=C\Cc1cnco1)[C@@H](O)C(C)(C)C(N)=O for me?
Result: 0.0485

Task: Which max response is reported for this molecule? C=C(C(=O)OC[C@H]1O[C@@H](OC(=O)/C=C/c2ccccc2)[C@H](O)[C@@H](O)[C@@H]1O)C(O)CO (some centres undefined)
Result: -9.26

Task: Recorded max response of Cc1nc2c(C(F)(F)F)cccc2nc1-c1ccc(-c2cccc(S(C)(=O)=O)c2)cc1 , please.
Result: -1.09

Task: Quick one: max response of Cc1cc(OCCCS(C)(=O)=O)cc(C)c1-c1cccc(COc2ccc3c(c2)OCC3CC(=O)O)c1 (centres undefined) ?
Result: -4.99

Task: // max response lookup, key: CCOC(=O)c1cnn(-c2ccccc2)c1NC(=O)c1cc2nc(-c3ccco3)cc(C(F)(F)Cl)n2n1
Result: -4.16

Task: Query: max response; subject: O=C(NCCO)c1cccc(-c2cc(Nc3ccc(OC(F)(F)F)cc3)ncn2)c1
Result: 0.504

Task: # input molecule: Cc1cc(OCCCS(C)(=O)=O)cc(C)c1-c1cccc(COc2ccc(C3=CC(=O)NS3=O)cc2)c1 (centres undefined) ; wanted: its max response
Result: 3.79

Task: Can you share its max response? I mean this molecule: CC[C@H](C)/C=C(C)/C=C/C1=CC2=CC(=O)[C@]3(C)OC(=O)[C@@H](C(C)=O)[C@@H]3C2=CO1
Result: -1.79

Task: May I ask what max response has been recorded for O=C(NO)c1ccc(CC(=O)N(CCO)c2ccccc2)cc1 ?
Result: 0.727

Task: I have this molecule here, C/C=C(\C)C(=O)OC1C=C(C)CC(OC(=O)c2ccc(O)cc2)C2C1(C)CCC2(O)C(C)C (centres undefined) , and I need its recorded max response.
Result: 1.09

Task: Tell me the measured max response of O=C(CSc1nc2ccccc2c(=O)n1-c1ccccc1)Nc1ccc2c(c1)CCC2 , please.
Result: 1.59

Task: Fill in: max response of Cc1nc(N2CCN(C(=O)c3ccco3)CC2)c2c3c(sc2n1)CCCC3 is ___
Result: -5.8

Task: Any idea what max response was measured for CNc1nc(Nc2ccc(C(=O)N3CCOCC3)cc2OC)nc2[nH]cc(Cl)c12 ?
Result: 1.38

Task: Given the molecule CC(C)=CCC/C(C)=C/COCC1OC(n2ccc(=O)[nH]c2=O)C(O)C1O (centres undefined) , what is its reported max response?
Result: -3.59

###

Provide the recorded activity change, negative = cytotoxicity for the entries that follow.
Tested on: Tov-21-G
Experiment: Primary qHTS to identify gynecologic anti-cancer compounds using libraries of approved drugs and bioactive compounds (AID 1345084); further: on the % scale 0 is the no-effect control and ±100 the full control effect; nearly all actives have a fitted effect of over 55% in size
Conditions: Gynecologic cancer cell panel viability, ATPlite luminescence, 48 h; series mostly up to 57.5 µM
Inconclusive results are not listed. Active and inactive are the calls of the source. The call rests on the fitted dose curve; in most records, active means well fitted cell-killing curve with a large enough effect; inconclusive means small, poorly fitted or top-dose-only effect, or effect the other way; inactive means flat fitted curve, though single readings scatter.

Task: Would you kindly share the measured activity change, negative = cytotoxicity for CC(=O)N[C@H]1[C@H](O[C@H]2CC[C@@]3(C)C(CC[C@]4(C)C3CC=C3C5CC(C)(C)CC[C@]5(C(=O)O)C(O)C[C@]34C)C2(C)C)O[C@H](CO[C@@H]2O[C@H](C)[C@H](O)[C@H](O)[C@H]2O[C@@H]2OC[C@@H](O)[C@H](O)[C@H]2O)[C@@H](O)[C@@H]1O (stereo partly drawn) ?
Result: -0.865% [at 11.6 µM] (inactive)

Task: Record request: activity change, negative = cytotoxicity value, item C[C@H]1CC[C@@]2(OC1)O[C@H]1CC3[C@@H]4CC[C@@H]5C[C@@H](O[C@@H]6O[C@H](CO)[C@@H](O[C@@H]7O[C@@H](C)[C@H](O)[C@@H](O)[C@H]7O)[C@H](O)[C@H]6O[C@@H]6O[C@H](CO)[C@@H](O)[C@H](O)[C@H]6O)CC[C@]5(C)C4CC[C@]3(C)[C@H]1[C@@H]2C (stereo partly drawn)
Result: -2.16% [at 11.6 µM] (inactive)

Task: Report activity change, negative = cytotoxicity for C[C@@H]1O[C@@H](O[C@H]2[C@H](O[C@H]3CC[C@@]4(C)C(CC[C@]5(C)C4C=C[C@]46OC[C@@]7(CCC(C)(C)C[C@H]74)[C@@H](O[C@@H]4O[C@@H](C)[C@H](O)[C@@H](O)[C@H]4O)C[C@]65C)[C@]3(C)CO)O[C@H](CO)[C@@H](O)[C@@H]2O[C@@H]2O[C@H](CO)[C@@H](O)[C@H](O)[C@H]2O)[C@H](O)[C@H](O)[C@H]1O (stereo partly drawn) please.
Result: -2.59% [at 11.6 µM] (inactive)

Values from PubChem BioAssay (NCATS)
